target_entity: tau (Homo sapiens, UniProt P10636)
Sequence (P10636 623-695 limits assumed): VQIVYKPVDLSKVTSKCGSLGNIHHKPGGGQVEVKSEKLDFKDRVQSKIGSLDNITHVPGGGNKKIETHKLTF
protocol_notes: MCE Phenols Library screening, tau biosensor cell seeding assay (AvZ)
Assay type: cell-based
test_conditions: raw puncta, replicate 2
Binning of raw data 2 into classes: low (below 5000), mid (5000 to below 9000), high (9000 or more)

>  <molecule>
COc1cc(CC(=O)C(=O)O)ccc1O

>  <cat>
low

$$$$
>  <molecule>
COc1cc2c(cc1OC)[C@@H](Cc1ccc(O)c(Oc3cc4c(cc3OC)CCN(C)[C@@H]4Cc3ccc(O)cc3)c1)N(C)CC2

>  <cat>
high

$$$$
>  <molecule>
CCCCCCC[C@H](O)CC(=O)CCc1ccc(O)c(OC)c1

>  <cat>
mid

$$$$
>  <molecule>
Oc1cc(O)cc(-c2cc3ccc(O)cc3o2)c1

>  <cat>
low

$$$$
>  <molecule>
O=c1c(O[C@@H]2OC[C@@H](O)[C@H](O)[C@H]2O)c(-c2ccc(O)c(O)c2)oc2cc(O)cc(O)c12

>  <cat>
high

$$$$
>  <molecule>
O=c1c(O[C@@H]2OC[C@H](O)[C@H](O)[C@H]2O)c(-c2ccc(O)c(O)c2)oc2cc(O)cc(O)c12

>  <cat>
mid

$$$$
>  <molecule>
O=C(O)C=Cc1ccc(O)cc1

>  <cat>
high

$$$$
>  <molecule>
O=c1c(O[C@@H]2O[C@H](CO)[C@H](O)[C@H](O)[C@H]2O)c(-c2ccc(O)c(O)c2)oc2cc(O)cc(O)c12 [Hyperoside]

>  <cat>
high

$$$$
>  <molecule>
COc1cc(CCN)ccc1O

>  <cat>
mid

$$$$
>  <molecule>
OCc1ccccc1O

>  <cat>
mid

$$$$
>  <molecule>
O=c1cc(-c2ccc(O)cc2)oc2c([C@@H]3O[C@H](CO)[C@@H](O)[C@H](O)[C@H]3O)c(O)c([C@@H]3OC[C@@H](O)[C@H](O)[C@H]3O)c(O)c12

>  <cat>
low

$$$$
>  <molecule>
CC(=O)c1cc2c(CO)cc(O)cc2oc1=O

>  <cat>
high

$$$$
>  <molecule>
Cc1cc(O)c(C)c2c1O[C@](C)(CCC[C@H](C)CCC[C@H](C)CCCC(C)C)CC2

>  <cat>
low

$$$$
>  <molecule>
COc1cc2oc3cc(O)c(OC)c(CC=C(C)C)c3c(=O)c2c(O)c1CC=C(C)C

>  <cat>
high

$$$$
>  <molecule>
CCC1(c2ccc(O)cc2)NC(=O)N(C)C1=O (stereo not drawn) [4-Hydroxymephenytoin]

>  <cat>
low

$$$$
>  <molecule>
O=c1c2c(O)cc(O)cc2oc2c(O)ccc(O[C@@H]3O[C@H](CO)[C@@H](O)[C@H](O)[C@H]3O)c12

>  <cat>
mid

$$$$
>  <molecule>
COc1cc(-c2oc3cc(O)cc(O)c3c(=O)c2O)ccc1O

>  <cat>
mid

$$$$
>  <molecule>
O=C(/C=C/c1ccc(O)c(O)c1)OC[C@H]1O[C@@H](OCCc2ccc(O)c(O)c2)[C@H](O)[C@@H](O)[C@@H]1O [Calceolarioside B]

>  <cat>
mid

$$$$
>  <molecule>
Cc1cc(O)c2c(c1)C(=O)c1cc(O)cc(O)c1C2=O

>  <cat>
mid

$$$$
>  <molecule>
COc1cc(CCCO)cc(OC)c1O [Dihydrosinapyl alcohol]

>  <cat>
high

$$$$
>  <molecule>
COc1cc(/C=C/C(=O)OCC2OC(OC3(CO)OC(CO)C(O)C3OC(=O)/C=C/c3cc(OC)c(O)c(OC)c3)C(O)C(O)C2O)cc(OC)c1O (stereo not drawn) [(E)-3',6-Disinapoylsucrose]

>  <cat>
mid

$$$$
>  <molecule>
O=C1C[C@@H](c2ccc(O)c(O)c2)Oc2cc(O)cc(O)c21

>  <cat>
high

$$$$
>  <molecule>
O=C(O)CCc1ccc(O)c(O)c1 [Dihydrocaffeic acid]

>  <cat>
low

$$$$
>  <molecule>
COC(=O)[C@@H](Cc1ccc(O)c(O)c1)OC(=O)/C=C/c1ccc(O)c(O)c1 [Methyl rosmarinate]

>  <cat>
mid

$$$$
>  <molecule>
COc1c(O)cc2oc(-c3ccccc3)cc(=O)c2c1O

>  <cat>
high

$$$$
